Target: T1, ZNF524 ZF1-4 S155A (human, UniProt Q96C55 110-223, S155A)
T1 sequence: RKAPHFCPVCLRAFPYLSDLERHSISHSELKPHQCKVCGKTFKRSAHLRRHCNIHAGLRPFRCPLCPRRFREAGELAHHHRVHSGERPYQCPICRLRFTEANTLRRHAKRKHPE
Experiment: ITC; ITC: 20 mM Tris-HCl pH 7.5, 150 mM NaCl, 20 C; pull-down: 50 mM Tris-HCl pH 7.5, 150 mM NaCl, 0.5% IGEPAL, 5 mM MgCl2, 1 mM DTT, salmon sperm DNA, 4 C
Settings: protein: recombinant; tags: none (GST removed by TEV); blunt
READOUT: Kd (nM)
One number for each entry, in nM.

**Q:** Please supply the value of reported Kd for the item TTAGGG 12-bp duplex (dsDNA) DNA 1: GGTTAGGGTTAG DNA 2: CTAACCCTAACC
**A:** 250
